Just for reference, paper PMC9516332 is where these values come from.

- system: panel of 255 wild-type kinases (Homo sapiens, UniProt Q9UM73)
- Sequence (Q9UM73 19-1620): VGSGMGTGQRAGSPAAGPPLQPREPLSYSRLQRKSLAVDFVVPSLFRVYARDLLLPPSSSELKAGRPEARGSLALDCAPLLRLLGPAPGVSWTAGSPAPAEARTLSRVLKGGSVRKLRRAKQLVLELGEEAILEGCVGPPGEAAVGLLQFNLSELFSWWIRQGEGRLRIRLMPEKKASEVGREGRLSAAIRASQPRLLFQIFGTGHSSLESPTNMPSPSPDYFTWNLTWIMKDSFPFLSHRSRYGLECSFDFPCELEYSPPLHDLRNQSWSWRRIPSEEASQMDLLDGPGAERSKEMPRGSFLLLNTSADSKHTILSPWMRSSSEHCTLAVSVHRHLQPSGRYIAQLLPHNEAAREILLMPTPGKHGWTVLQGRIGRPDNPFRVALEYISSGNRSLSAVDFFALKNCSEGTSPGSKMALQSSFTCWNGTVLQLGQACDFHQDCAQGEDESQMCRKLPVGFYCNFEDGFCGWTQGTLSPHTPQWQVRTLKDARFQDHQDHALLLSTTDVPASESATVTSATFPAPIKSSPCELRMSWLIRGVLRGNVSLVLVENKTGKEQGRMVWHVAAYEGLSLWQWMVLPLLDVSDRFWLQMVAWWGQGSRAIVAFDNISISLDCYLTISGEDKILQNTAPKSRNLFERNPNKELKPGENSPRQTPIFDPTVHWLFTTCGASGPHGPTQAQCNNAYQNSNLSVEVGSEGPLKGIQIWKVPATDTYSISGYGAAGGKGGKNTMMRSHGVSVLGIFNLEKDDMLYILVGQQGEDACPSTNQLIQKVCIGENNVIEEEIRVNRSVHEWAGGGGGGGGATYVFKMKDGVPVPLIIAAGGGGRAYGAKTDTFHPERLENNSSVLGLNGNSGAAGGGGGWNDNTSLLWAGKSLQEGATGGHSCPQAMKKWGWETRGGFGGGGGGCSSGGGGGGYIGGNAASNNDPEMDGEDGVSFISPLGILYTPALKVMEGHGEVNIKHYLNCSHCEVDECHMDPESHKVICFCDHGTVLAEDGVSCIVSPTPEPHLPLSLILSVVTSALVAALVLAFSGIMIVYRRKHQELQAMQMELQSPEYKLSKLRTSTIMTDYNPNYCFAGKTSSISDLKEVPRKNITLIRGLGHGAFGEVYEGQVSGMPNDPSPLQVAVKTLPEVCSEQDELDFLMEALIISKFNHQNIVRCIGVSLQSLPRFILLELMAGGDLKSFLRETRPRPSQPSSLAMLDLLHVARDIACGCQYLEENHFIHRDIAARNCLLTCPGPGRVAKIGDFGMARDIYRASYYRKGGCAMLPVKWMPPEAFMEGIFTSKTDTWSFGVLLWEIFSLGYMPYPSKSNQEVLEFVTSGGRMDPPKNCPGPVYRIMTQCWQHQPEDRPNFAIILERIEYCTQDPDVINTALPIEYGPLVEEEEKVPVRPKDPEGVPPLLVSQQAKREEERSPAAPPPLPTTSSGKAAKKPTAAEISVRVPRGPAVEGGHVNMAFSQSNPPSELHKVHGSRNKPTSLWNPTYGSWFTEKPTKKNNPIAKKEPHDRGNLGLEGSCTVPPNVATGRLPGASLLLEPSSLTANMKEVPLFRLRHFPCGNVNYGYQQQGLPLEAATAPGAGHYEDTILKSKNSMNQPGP
- assay procedure: Kinase panel profiling at 1 µmol/L (MSA or IMAP), percentage inhibition
- Format: biochemical
- condition description: ALK kinase assay; 1 µmol/L single concentration; read-out: %-inhibition ALK
Entries and their inhibition at 1 µM values follow.
Please don't drop the unit; write it after the number.

C[C@H](Nc1ncnc2nc[nH]c12)c1cc2cccc(Cl)c2c(=O)n1-c1ccccc1 :: 3.74%

Record summary for `CCN1CCN(c2ccc(Nc3cc(N(C)C(=O)Nc4c(Cl)c(OC)cc(OC)c4Cl)ncn3)cc2)CC1` : reported inhibition at 1 µM = 43%

Record summary for `FC(F)(F)c1ccc(CNc2ccc(Cc3c[nH]c4ncc(Cl)cc34)cn2)cn1` : reported inhibition at 1 µM = 11%

###

- System: 134 cancer cell lines
- assay procedure: Cell viability assay (ATPlite, 72 hours), IC50 on cancer cell line panel
- condition description: Homo sapiens, NCI-H661, read-out: IC50 in cell proliferation assay, NCI-H661 cell line
measured property: pIC50
Value format note: pIC50 is -log10 of concentration (mol/L); just state the number.

These recorded examples may help you get a feel for the data.
COC(=O)N[C@@H](C)CNc1nccc(-c2cn(C(C)C)nc2-c2cc(Cl)cc(NS(C)(=O)=O)c2F)n1 [encorafenib] :: 6.09
CO[C@]1(C(=O)N[C@@H](C)c2ccc(-n3cc(F)cn3)nc2)CC[C@H](c2nc(C)cc(Nc3cc(C)[nH]n3)n2)CC1 [pralsetinib] :: 5.68
COc1ccc(CN2C3CC2CN(c2ccc(-c4cc(OCC(C)(C)O)cn5ncc(C#N)c45)cn2)C3)cn1 [selpercatinib] :: 5.06

Turning now to a further record.
Record summary for COc1cc2ncnc(Nc3ccc(F)c(Cl)c3)c2cc1NC(=O)/C=C/CN1CCCCC1 [dacomitinib] : reported pIC50 = 5.43

###

- Tested on: 134 cancer cell lines
- assay procedure: Cell viability assay (ATPlite, 72 hours), IC50 on cancer cell line panel
- condition description: Homo sapiens, MOLM-13, read-out: IC50 in cell proliferation assay
Entries and their pIC50 values follow.
Value format note: pIC50 is -log10 of concentration (mol/L); just state the number.

These recorded examples may help you get a feel for the data.
C[C@H]1Oc2cc(cnc2N)-c2c(nn(C)c2C#N)CN(C)C(=O)c2ccc(F)cc21 :: 4.68
CNC(=O)c1ccc(-c2cnc3ncc(Cc4ccc5ncccc5c4)n3n2)cc1F :: 5.22
CO[C@@H]1[C@H](N(C)C(=O)c2ccccc2)C[C@H]2O[C@]1(C)n1c3ccccc3c3c4c(c5c6ccccc6n2c5c31)C(=O)NC4 :: 7.85

Turning now to a further record.
Result for `C=CC(=O)N1CCC[C@@H](n2nc(-c3ccc(Oc4ccccc4)cc3)c3c(N)ncnc32)C1` , tested on 134 cancer cell lines, pIC50: 6.37

###

- system: panel of 255 wild-type kinases (Homo sapiens, UniProt Q13976)
- Sequence (Q13976 whole entry): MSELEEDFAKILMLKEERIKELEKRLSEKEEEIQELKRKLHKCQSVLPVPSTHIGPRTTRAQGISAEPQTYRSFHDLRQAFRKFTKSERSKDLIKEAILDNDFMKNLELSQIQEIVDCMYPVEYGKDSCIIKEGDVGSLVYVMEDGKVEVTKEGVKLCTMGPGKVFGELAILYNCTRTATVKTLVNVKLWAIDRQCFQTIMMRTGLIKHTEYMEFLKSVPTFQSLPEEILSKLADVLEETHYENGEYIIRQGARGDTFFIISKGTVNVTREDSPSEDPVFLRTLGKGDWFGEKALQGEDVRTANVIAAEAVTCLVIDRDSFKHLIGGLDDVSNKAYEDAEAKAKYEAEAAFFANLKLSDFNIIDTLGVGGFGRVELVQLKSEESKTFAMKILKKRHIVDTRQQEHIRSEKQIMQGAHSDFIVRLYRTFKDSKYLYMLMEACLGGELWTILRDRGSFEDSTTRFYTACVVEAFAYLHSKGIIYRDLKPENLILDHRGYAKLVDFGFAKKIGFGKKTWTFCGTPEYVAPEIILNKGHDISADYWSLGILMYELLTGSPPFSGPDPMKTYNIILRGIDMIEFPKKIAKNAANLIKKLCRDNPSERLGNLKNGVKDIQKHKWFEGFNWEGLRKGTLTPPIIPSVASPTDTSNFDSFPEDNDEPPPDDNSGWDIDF
- assay procedure: Kinase panel profiling at 1 µmol/L (MSA or IMAP), percentage inhibition
- Assay type: biochemical
- condition description: kinase PGK; 1 µmol/L single concentration; read-out: %-inhibition at 1 µmol/L, PGK
Entries and their inhibition at 1 µM values follow.
Enter your answer as a number in %; do not include the unit.

These recorded examples may help you get a feel for the data.
COC(=O)N[C@@H](C)CNc1nccc(-c2cn(C(C)C)nc2-c2cc(Cl)cc(NS(C)(=O)=O)c2F)n1 :: -1.28
C=CC(=O)N1CCC([C@@H]2CCNc3c(C(N)=O)c(-c4ccc(Oc5ccccc5)cc4)nn32)CC1 :: -2.64
FC(F)(F)c1ccc(CNc2ccc(Cc3c[nH]c4ncc(Cl)cc34)cn2)cn1 :: 14
Cn1cnc2c(F)c(Nc3ccc(Br)cc3Cl)c(C(=O)NOCCO)cc21 :: -2
CO[C@]1(C(=O)N[C@@H](C)c2ccc(-n3cc(F)cn3)nc2)CC[C@H](c2nc(C)cc(Nc3cc(C)[nH]n3)n2)CC1 :: 13
C[C@H]1Oc2cc(cnc2N)-c2c(nn(C)c2C#N)CN(C)C(=O)c2ccc(F)cc21 :: 0.684
C[C@H](Nc1ncnc2nc[nH]c12)c1cc2cccc(Cl)c2c(=O)n1-c1ccccc1 :: 1.63
Cn1cnc2c(F)c(Nc3ccc(Br)cc3F)c(C(=O)NOCCO)cc21 :: -3
COc1cc2ncnc(Nc3ccc(F)c(Cl)c3)c2cc1NC(=O)/C=C/CN1CCCCC1 :: 4
Cc1nc(NC(=O)N2CCC[C@H]2C(N)=O)sc1-c1ccnc(C(C)(C)C(F)(F)F)c1 :: -3

Turning now to a further record.
Record summary for `COc1ccc(CN2C3CC2CN(c2ccc(-c4cc(OCC(C)(C)O)cn5ncc(C#N)c45)cn2)C3)cn1` : reported inhibition at 1 µM = 0.302
